Where do the numbers come from? From patent US20230029835A1.

- System under test: T1, Cynomolgus macaques TSLP recombinant protein (Cynomolgus macaques, UniProt Q969D9 29-159 (human entry), limits assumed, biotinylated in the blocking assays (sites not given))
- T1 construct: also called cyTSLP; biotinylated Cynomolgus macaques TSLP protein
- T1 chain: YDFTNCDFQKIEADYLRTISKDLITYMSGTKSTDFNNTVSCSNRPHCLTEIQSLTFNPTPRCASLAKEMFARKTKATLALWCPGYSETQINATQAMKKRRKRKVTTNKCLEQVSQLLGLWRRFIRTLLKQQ
- Assay info: SPR BIAcore T200, antibody captured on Protein A, cynomolgus TSLP injected
Value kind: kon (M⁻¹ s⁻¹)
Report only the number, with the unit M⁻¹ s⁻¹ understood.

Consider the following illustrative entries.
Ab23 (antibody, V domains shown, Humanized; also called h39G5VHv2/h71G4VKv1; h39G5VHv2/h71G4VKv1 hIgG1) VH: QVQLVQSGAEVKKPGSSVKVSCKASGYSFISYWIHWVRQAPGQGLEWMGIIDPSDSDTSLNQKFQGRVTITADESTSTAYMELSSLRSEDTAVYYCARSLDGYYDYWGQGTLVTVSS VL: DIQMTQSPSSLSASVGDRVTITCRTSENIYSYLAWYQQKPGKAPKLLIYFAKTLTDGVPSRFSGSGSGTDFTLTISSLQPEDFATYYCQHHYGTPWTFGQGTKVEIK    1.93e+06
Ab22 (antibody, V domains shown, Humanized; also called h39G5VHv1/h71G4VKv1; h39G5VHv1/h7IG4VKv1 hIgG1) VH: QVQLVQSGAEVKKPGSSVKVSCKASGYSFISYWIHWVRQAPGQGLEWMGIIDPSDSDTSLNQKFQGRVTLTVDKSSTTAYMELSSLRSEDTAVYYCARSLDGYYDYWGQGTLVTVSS VL: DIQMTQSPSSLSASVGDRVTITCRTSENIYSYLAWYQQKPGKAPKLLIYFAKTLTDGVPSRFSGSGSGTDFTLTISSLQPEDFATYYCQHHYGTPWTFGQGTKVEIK    1.59e+06
Ab24 (antibody, V domains shown, Humanized; also called h39G5VHv5/h71G4VKv1; h39G5VHv5/h71G4VKv1 hIgG1) VH: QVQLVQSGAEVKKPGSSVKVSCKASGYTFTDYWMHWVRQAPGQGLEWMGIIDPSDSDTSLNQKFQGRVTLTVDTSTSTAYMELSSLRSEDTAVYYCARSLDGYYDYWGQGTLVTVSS VL: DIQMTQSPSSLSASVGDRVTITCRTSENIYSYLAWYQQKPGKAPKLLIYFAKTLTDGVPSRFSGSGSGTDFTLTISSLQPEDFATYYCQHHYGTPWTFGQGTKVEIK    1.59e+06

Field kon (entry Ab26 (antibody, V domains shown, Humanized; also called h39G5VHv10/h71G4VKv1; h39G5VHv10/h71G4VKv1 hIgG1) VH: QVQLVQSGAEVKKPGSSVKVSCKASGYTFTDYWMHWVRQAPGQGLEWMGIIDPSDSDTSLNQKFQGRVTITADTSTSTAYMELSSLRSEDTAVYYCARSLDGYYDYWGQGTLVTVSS VL: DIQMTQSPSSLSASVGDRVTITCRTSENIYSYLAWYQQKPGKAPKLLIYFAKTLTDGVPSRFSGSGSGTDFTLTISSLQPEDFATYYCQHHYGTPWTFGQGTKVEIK ) reads 1.24e+06
